Hello, the source for this data is patent US5328909A, in case you need it.

Target: m-calpain (Rattus norvegicus, UniProt Q07009)
Construct: m-calpain was purified from rat brain; from tissue; host or cells: rat brain
Sequence (Q07009 20-700 limits assumed): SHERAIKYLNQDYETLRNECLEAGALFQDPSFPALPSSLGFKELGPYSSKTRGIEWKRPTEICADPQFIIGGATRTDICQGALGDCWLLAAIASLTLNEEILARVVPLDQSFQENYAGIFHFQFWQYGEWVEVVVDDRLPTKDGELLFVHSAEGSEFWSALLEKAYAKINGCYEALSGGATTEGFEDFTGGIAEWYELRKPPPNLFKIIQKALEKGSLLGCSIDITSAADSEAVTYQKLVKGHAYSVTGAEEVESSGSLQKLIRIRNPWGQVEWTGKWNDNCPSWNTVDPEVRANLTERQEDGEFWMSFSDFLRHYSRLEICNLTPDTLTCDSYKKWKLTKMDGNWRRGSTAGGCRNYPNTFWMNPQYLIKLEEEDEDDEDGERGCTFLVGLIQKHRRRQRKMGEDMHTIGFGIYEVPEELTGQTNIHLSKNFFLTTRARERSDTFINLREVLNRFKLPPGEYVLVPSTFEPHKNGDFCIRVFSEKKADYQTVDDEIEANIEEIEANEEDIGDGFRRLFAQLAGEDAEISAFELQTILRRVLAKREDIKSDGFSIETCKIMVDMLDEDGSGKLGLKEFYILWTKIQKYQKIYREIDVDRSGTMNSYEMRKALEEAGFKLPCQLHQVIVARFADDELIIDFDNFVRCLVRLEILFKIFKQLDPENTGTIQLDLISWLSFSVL
Sequence (Q64537 1-270 partner): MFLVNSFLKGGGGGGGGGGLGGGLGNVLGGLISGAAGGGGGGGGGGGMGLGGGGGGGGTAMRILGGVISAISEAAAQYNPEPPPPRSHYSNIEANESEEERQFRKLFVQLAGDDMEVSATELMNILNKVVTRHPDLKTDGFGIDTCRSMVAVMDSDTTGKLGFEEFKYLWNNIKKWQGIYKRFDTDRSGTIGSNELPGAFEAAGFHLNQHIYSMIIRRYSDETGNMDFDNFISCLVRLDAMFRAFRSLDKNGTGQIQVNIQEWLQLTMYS
Assay: Thiol protease inhibitory activity against m-calpain purified from rat brain
Format: biochemical
Settings: Table 3; rat brain enzyme; read-out: IC50 (μM) m-calpain
Attribute: IC50
Return type: number; implicit unit µM.

Example cases with answers are listed next.
CC(C)C[C@H](NC(=O)OCC1CCCCC1)C(=O)N[C@@H](C(C)C)C(O)c1cc1=O (some centres unmarked) ... 0.5
CCCC[C@H](NC(=O)[C@H](CC(C)C)NC(=O)OCc1ccccc1)C(O)c1c(-c2ccccc2)c1=O (some centres unmarked) ... 3
CCCC[C@H](NC(=O)[C@H](CC(C)C)NC(=O)OCC1CCCCC1)C(O)c1cc1=O (some centres unmarked) ... 0.81
CC(C)C[C@H](NC(=O)OCc1ccccc1)C(=O)N[C@@H](C(C)C)[C@@H](O)c1c(-c2ccccc2)c1=O ... 2.1
CCCC[C@H](NC(=O)[C@H](CC(C)C)NC(=O)OCC1CCCCC1)C(O)c1c(-c2ccccc2)c1=O (some centres unmarked) ... 2.7
CCCC[C@H](NC(=O)[C@H](CC(C)C)NC(=O)OCc1ccccn1)C(O)c1c(-c2ccccc2)c1=O (some centres unmarked) ... 5.7
CC(C)C[C@H](NC(=O)OCC1CCCCC1)C(=O)N[C@@H](C(C)C)[C@H](O)c1c(-c2ccccc2)c1=O ... 3.3
CC(C)C[C@H](NC(=O)OCC1CCCCC1)C(=O)N[C@@H](C(C)C)[C@@H](O)c1c(-c2ccccc2)c1=O ... 1.6

Incoming: Can you look up the measured IC50 of CC(C)C[C@H](NC(=O)OCc1ccccc1)C(=O)N[C@@H](C(C)C)C(O)c1c(-c2ccccc2)c1=O (some centres unmarked) for me?
Outgoing: 1.6

Incoming: Another compound to check: CCCC[C@H](NC(=O)[C@H](CC(C)C)NC(=O)OCc1ccccc1)C(O)c1cc1=O (some centres unmarked)
Outgoing: 2.4

Incoming: Another compound to check: CC(C)C[C@H](NC(=O)OCc1ccccc1)C(=O)N[C@@H](CC(C)C)C(O)c1cc1=O (some centres unmarked)
Outgoing: 2.3
